Reference source for all entries: paper PMC9551036

molecular target: VCB: PROTAC: SMARCA2^BD ternary complex (Homo sapiens, UniProt P51531); construct: P51531-2, residues 1373-1493 with additional N-terminal SM residues; GST (TEV site) (N); His6 (TEV site) (N, cleaved yes); made in house; host or cells: SMARCA2^BD: Escherichia coli BL21(DE3); experiment: TR-FRET ternary complex affinity and cooperativity, SMARCA2; assay type: binding; conditions: SMARCA2 BD EC50, binary, PROTAC alone; individual replicates
metric name: EC50 (nM)

molecule="O=c1nc2n(C3CCCC3)c3cc(C4CCNCC4)ccc3n2c2cccc(Br)c12 [compound 4]" recorded_result=88.4

---

Assay: Cell viability assay (CellTiter Glo) in a panel of cell lines;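 note: percent of DMSO-treated control cells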
Type: cell-based, human
Conditions: human, A549 cells, A549; log10 conc -6 mol/l
Description: 500–2000 cells were seeded in white, clear bottom 96-well plates (Corning or Perkin Elmer) in 180–200 µl medium per well. The next day, compounds were added using a digital dispenser and a T0 sample was measured for reference. Cells were incubated for 144–192 h, and viability (luminescence) was measured using CellTiter Glo or CellTiter Glo 2.0 (Promega) according to manufacturer’s instructions after equilibrating cells and reagents at room temperature and 10–20 min incubation time while shaking.
metric name: viability at 1 µM (%)

compound="Cc1ncsc1-c1ccc(C(CCC(C)CCN2CCC(c3ccc4c(c3)n(C3CCCC3)c3nc(=O)c5c(Br)cccc5n43)CC2)NC(=O)C2CC(O)CN2C(=O)C(NC(=O)C2(F)CC2)C(C)(C)C)cc1 (stereo not shown)" metric_name="viability at 1 µM" units=% recorded_result=44

---

target: VCB: PROTAC: SMARCA2^BD ternary complex (Homo sapiens, UniProt P40337+P51531); test: TR-FRET ternary complex affinity and cooperativity, SMARCA2; assay type: binding; design: P51531-2, residues 1373-1493 with additional N-terminal SM residues; GST (TEV site) (N); His6 (TEV site) (N, cleaved yes); made in house; host or cells: SMARCA2^BD: Escherichia coli BL21(DE3); conditions: TR-FRET competition for SMARCA2BD, + VCB; mean ± SD; read-out: TR-FRET Ternary SMARCA2BD EC50 (PROTAC + VCB)
Sequence (P51531 with tags, fused parts or gaps isoform P51531-2): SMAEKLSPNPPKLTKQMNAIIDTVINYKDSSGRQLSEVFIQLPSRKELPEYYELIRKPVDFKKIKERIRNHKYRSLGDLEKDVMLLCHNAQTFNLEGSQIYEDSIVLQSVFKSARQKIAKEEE
Sequence (P40337 54-213): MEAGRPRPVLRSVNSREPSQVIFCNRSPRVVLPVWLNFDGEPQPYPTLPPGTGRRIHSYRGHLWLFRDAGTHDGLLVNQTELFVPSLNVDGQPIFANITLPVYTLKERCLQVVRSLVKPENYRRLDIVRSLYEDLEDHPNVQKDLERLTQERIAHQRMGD
Sequence (Q15369 17-112 partner): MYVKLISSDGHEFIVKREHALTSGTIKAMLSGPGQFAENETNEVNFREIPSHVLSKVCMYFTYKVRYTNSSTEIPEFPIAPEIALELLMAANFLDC
Sequence (Q15370 1-104 partner): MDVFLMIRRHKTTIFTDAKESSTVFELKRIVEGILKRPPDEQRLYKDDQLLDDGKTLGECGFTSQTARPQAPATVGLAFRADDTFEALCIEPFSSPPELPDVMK
This listing pairs compounds with measured EC50.
metric name: EC50

compound="Cc1ncsc1-c1ccc(C(CCC(C)CCN2CCC(c3ccc4c(c3)n(C3CCCC3)c3nc(=O)c5c(Br)cccc5n43)CC2)NC(=O)C2CC(O)CN2C(=O)C(NC(=O)C2(F)CC2)C(C)(C)C)cc1 (centres unmarked)" recorded_result="0.042 µM"
compound=O=c1nc2n(C3CCCC3)c3ccccc3n2c2cccc(Br)c12 recorded_result="0.389 µM"
compound=CN1CCC(c2ccc3c(c2)n(C2CCCC2)c2nc(=O)c4c(Br)cccc4n32)CC1 recorded_result="0.048 µM"
compound=Cc1ncsc1-c1ccc([C@H](CCCCCN2CCC(c3ccc4c(c3)n(C3CCCC3)c3nc(=O)c5c(Br)cccc5n43)CC2)NC(=O)[C@@H]2C[C@@H](O)CN2C(=O)[C@@H](NC(=O)C2(F)CC2)C(C)(C)C)cc1 recorded_result="0.025 µM"
compound=Cc1ncsc1-c1ccc(CNC(=O)[C@@H]2C[C@@H](O)CN2C(=O)[C@@H](NC(=O)C2(F)CC2)C(C)(C)C)c(OCCOCCOCCN2CCC(c3ccc4c(c3)n(C3CCCC3)c3nc(=O)c5c(Br)cccc5n43)CC2)c1 recorded_result="0.134 µM"

---

molecular target: VCB: PROTAC: SMARCA4^BD ternary complex (Homo sapiens, UniProt P40337+P51532); experiment: TR-FRET ternary complex affinity and cooperativity, SMARCA4; type: binding; design: P51532, residues 1448–1569 with additional N-terminal SM residues; GST (TEV site) (N); His6 (TEV site) (N, cleaved yes); made in house; host or cells: SMARCA4^BD: Escherichia coli BL21(DE3); conditions: TR-FRET competition for SMARCA4BD, + VCB; mean ± SD; read-out: TR-FRET Ternary SMARCA4BD EC50 (PROTAC + VCB)
Sequence (P51532 1448-1569): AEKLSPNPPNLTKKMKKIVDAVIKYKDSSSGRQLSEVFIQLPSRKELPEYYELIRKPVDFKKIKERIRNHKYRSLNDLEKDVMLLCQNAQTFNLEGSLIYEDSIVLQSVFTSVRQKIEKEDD
Sequence (P40337 54-213): as the sequence (P40337 54-213) above
Sequence (Q15369 17-112 partner): as the sequence (Q15369 17-112 partner) above
Sequence (Q15370 1-104 partner): as the sequence (Q15370 1-104 partner) above
This listing pairs compounds with measured EC50.
metric name: EC50 (nM)

sample_smiles=Cc1ncsc1-c1ccc([C@H](CCCCN2CCC(c3ccc4c(c3)n(C3CCCC3)c3nc(=O)c5c(Br)cccc5n43)CC2)NC(=O)[C@@H]2C[C@@H](O)CN2C(=O)[C@@H](NC(=O)C2(F)CC2)C(C)(C)C)cc1 metric_name=EC50 recorded_result=79
sample_smiles=Cc1ncsc1-c1ccc(CNC(=O)[C@@H]2C[C@@H](O)CN2C(=O)[C@@H](NC(=O)C2(F)CC2)C(C)(C)C)c(OCCCCN2CCC(c3ccc4c(c3)n(C3CCCC3)c3nc(=O)c5c(Br)cccc5n43)CC2)c1 metric_name=EC50 recorded_result=206
sample_smiles=Cc1ncsc1-c1ccc([C@H](CCC(C)(C)CCN2CCC(c3ccc4c(c3)n(C3CCCC3)c3nc(=O)c5c(Br)cccc5n43)CC2)NC(=O)[C@@H]2C[C@@H](O)CN2C(=O)[C@@H](NC(=O)C2(F)CC2)C(C)(C)C)cc1 metric_name=EC50 recorded_result=106
sample_smiles=Cc1ncsc1-c1ccc([C@H](CC[C@H](C)CCN2CCC(c3ccc4c(c3)n(C3CCCC3)c3nc(=O)c5c(Br)cccc5n43)CC2)NC(=O)[C@@H]2C[C@H](O)CN2C(=O)[C@@H](NC(=O)C2(F)CC2)C(C)(C)C)cc1 metric_name=EC50 recorded_result=367

---

biological target: SMARCA4 (Homo sapiens); test: SMARCA4 capillary electrophoresis protein assay in RKO cells; type: cell-based; set-up: endogenous in cells; host or cells: RKO, HCT116, LU99, HCC-364, HCT-15, HCC4006, SK-N-AS; details: RKO (18 h); mean ± SD
Sequence (P51532 whole entry): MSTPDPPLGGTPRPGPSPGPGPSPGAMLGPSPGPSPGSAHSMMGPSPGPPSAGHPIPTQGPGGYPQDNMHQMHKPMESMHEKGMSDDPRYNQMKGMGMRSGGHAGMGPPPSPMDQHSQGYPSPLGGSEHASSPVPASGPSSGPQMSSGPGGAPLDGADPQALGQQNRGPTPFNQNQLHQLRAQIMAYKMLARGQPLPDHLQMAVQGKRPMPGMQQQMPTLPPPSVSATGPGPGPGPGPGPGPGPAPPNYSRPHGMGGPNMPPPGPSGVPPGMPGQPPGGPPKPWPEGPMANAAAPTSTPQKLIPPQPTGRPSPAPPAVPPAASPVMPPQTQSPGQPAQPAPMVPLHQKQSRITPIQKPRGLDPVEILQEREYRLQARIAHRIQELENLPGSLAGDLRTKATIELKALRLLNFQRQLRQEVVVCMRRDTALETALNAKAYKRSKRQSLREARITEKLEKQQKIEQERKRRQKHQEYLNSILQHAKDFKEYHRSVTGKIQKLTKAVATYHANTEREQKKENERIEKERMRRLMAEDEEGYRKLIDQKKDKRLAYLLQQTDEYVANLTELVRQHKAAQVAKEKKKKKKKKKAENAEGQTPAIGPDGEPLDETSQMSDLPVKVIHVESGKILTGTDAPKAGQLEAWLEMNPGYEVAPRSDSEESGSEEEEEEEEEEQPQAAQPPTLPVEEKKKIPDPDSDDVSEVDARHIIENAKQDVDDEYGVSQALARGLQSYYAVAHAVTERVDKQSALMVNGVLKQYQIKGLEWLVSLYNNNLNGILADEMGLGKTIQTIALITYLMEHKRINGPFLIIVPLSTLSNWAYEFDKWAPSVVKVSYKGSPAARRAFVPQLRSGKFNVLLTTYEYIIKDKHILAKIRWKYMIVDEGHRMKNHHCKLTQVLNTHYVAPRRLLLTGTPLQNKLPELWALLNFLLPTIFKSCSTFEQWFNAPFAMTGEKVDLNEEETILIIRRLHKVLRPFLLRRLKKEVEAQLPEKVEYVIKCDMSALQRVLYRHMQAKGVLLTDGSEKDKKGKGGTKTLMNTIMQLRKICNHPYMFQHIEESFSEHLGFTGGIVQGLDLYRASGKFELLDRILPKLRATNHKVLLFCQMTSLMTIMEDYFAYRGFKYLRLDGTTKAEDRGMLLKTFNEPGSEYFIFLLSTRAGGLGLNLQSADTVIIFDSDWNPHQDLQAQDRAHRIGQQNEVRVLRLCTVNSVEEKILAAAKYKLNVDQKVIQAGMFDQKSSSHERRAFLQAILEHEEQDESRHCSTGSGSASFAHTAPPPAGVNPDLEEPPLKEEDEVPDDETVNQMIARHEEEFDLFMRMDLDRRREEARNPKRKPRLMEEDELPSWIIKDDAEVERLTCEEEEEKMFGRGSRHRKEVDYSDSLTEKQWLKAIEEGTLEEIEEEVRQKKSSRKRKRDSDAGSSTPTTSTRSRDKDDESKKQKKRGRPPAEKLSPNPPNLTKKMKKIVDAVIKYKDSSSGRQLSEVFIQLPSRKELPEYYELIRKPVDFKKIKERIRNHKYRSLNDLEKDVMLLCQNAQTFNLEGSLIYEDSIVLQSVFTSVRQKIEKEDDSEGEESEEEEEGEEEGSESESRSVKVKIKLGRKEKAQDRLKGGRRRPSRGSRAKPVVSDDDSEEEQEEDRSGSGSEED
This listing pairs compounds with measured DC50.
metric name: DC50 (nM)

compound=Nc1cccc2c1c(=O)nc1n(C3CCCC3)c3ccccc3n21 metric_name=DC50 relation_operator=> recorded_result=25000
compound=CN1CCN(c2nc(=O)c3ccccc3o2)CC1 metric_name=DC50 relation_operator=> recorded_result=25000
compound=Cc1ncsc1-c1ccc([C@H](CC[C@H](C)CCN2CCC(c3ccc4c(c3)n(C3CCCC3)c3nc(=O)c5c(Br)cccc5n43)CC2)NC(=O)[C@@H]2C[C@H](O)CN2C(=O)[C@@H](NC(=O)C2(F)CC2)C(C)(C)C)cc1 metric_name=DC50 relation_operator== recorded_result=5830
compound=Cc1ncsc1-c1ccc([C@H](CCCCCN2CCC(c3ccc4c(c3)n(C3CCCC3)c3nc(=O)c5c(Br)cccc5n43)CC2)NC(=O)[C@@H]2C[C@@H](O)CN2C(=O)[C@@H](NC(=O)C2(F)CC2)C(C)(C)C)cc1 metric_name=DC50 relation_operator== recorded_result=12
compound=Cc1ncsc1-c1ccc([C@H](CCC(C)(C)CCN2CCC(c3ccc4c(c3)n(C3CCCC3)c3nc(=O)c5c(Br)cccc5n43)CC2)NC(=O)[C@@H]2C[C@@H](O)CN2C(=O)[C@@H](NC(=O)C2(F)CC2)C(C)(C)C)cc1 metric_name=DC50 relation_operator== recorded_result=73
compound="Cc1ncsc1-c1ccc([C@H](COC(C)CN2CCC(c3ccc4c(c3)n(C3CCCC3)c3nc(=O)c5c(Br)cccc5n43)CC2)NC(=O)[C@@H]2C[C@@H](O)CN2C(=O)[C@@H](NC(=O)C2(F)CC2)C(C)(C)C)cc1 (stereo partly drawn)" metric_name=DC50 relation_operator== recorded_result=1780
compound=Cc1ncsc1-c1ccc(CNC(=O)[C@@H]2C[C@@H](O)CN2C(=O)[C@@H](NC(=O)C2(F)CC2)C(C)(C)C)c(OCCOCCOCCN2CCC(c3ccc4c(c3)n(C3CCCC3)c3nc(=O)c5c(Br)cccc5n43)CC2)c1 metric_name=DC50 relation_operator== recorded_result=83
compound=CN1CCN(c2nc(=O)c3c(F)cccc3o2)CC1 metric_name=DC50 relation_operator=> recorded_result=25000
compound=O=c1nc2n(C3CCCC3)c3ccccc3n2c2cccc(Br)c12 metric_name=DC50 relation_operator=> recorded_result=25000
compound=Cc1ncsc1-c1ccc(CNC(=O)[C@@H]2C[C@@H](O)CN2C(=O)[C@@H](NC(=O)C2(F)CC2)C(C)(C)C)c(OCCCCN2CCC(c3ccc4c(c3)n(C3CCCC3)c3nc(=O)c5c(Br)cccc5n43)CC2)c1 metric_name=DC50 relation_operator== recorded_result=1260
compound=CN1CCN(c2nc(=O)c3c(I)cccc3o2)CC1 metric_name=DC50 relation_operator=> recorded_result=25000
compound=CN1CCC(c2ccc3c(c2)n(C2CCCC2)c2nc(=O)c4c(Br)cccc4n32)CC1 metric_name=DC50 relation_operator== recorded_result=11400

---

test: Cell viability assay (CellTiter Glo) in a panel of cell lines; assay type: cell-based, human; conditions: human, LXFL 1121L cells, LXFL_1121L; log10 conc -6.50031 mol/l;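 note: percent of DMSO-treated control cells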
metric name: viability at 0.316 µM

compound="Cc1ncsc1-c1ccc(C(CCC(C)CCN2CCC(c3ccc4c(c3)n(C3CCCC3)c3nc(=O)c5c(Br)cccc5n43)CC2)NC(=O)C2CC(O)CN2C(=O)C(NC(=O)C2(F)CC2)C(C)(C)C)cc1 (stereo not shown)" recorded_result=92.1%
